target: aggregated αS (Homo sapiens); construct: made in house; host or cells: E. coli BL21 (plasmid pET5α aSynWT); experiment: Fluorescence emission and fluorescence enhancement of probes bound versus unbound to aggregated αS; format: binding; details: probes of FIG. 14; aggregated αS 5 μM, probe 4 μM, 5% DMSO in nanopure water
Consider the following molecules; for each one, report its Emmax (with αS).
Write down the numeric answer in nm and omit the unit.

**Q:** Input CCCC1CCCCN1c1ccc2cc(/C=C(\C#N)C(=O)NCCOCCOCCOC)ccc2c1 (stereo not shown) , output reported Emmax (with αS).
**A:** 539

**Q:** // fetch Emmax (with αS) given entry CCC1CCCCN1c1ccc2cc(/C=C(\C#N)C(=O)NCCOCCOCCOC)ccc2c1 (racemic)
**A:** 534

**Q:** Look up Emmax (with αS) of COCCOCCOCCNC(=O)/C(C#N)=C/c1ccc2cc(N3CCCCC3C)ccc2c1 (racemic) and report it.
**A:** 531

**Q:** Please supply the value of reported Emmax (with αS) for the item COCCOCCOCCNC(=O)C(C#N)=Cc1ccc2cc(N3CCCCC3)ccc2c1 (mixture of isomers)
**A:** 539

Data provenance is patent US20250282723A1.
